Assay: MITF transcriptional activity suppression – cell-based, SK-MEL-5, single point, luciferase, primary screen (AID 488899)
Settings: SK-MEL-5 TRPM1 promoter luciferase, 24 h; at 12.5 µM; stronger effect = higher value
The whole screen tested about 330,000 compounds, of which about 2,800 (0.85%) were called active. Shown is part of a subset that was picked to be rich in actives.
Lab note: anything with inhibition at or over -10% counts as YES; the rest go in NO.

Take a look at these entries with their results.
1) Cc1cccc(NC(=O)c2nnn(-c3cccc(C(F)(F)F)c3)c2N)c1 :: NO
2) COc1cc(NC(=O)c2[nH]cnc2C(N)=O)cc(C(=O)Nc2cccc(C(F)(F)F)c2)c1 :: YES
3) COc1ccccc1N1CCN(/N=C\C(Br)=C\c2ccccc2)CC1 :: NO
4) Cc1cc(-c2n[nH]c(=S)n2/N=C/C(Br)=C/c2ccccc2)n[nH]1 :: YES
5) COc1ccc(NC(=O)C(=O)NCC(=O)Nc2cccc(C(F)(F)F)c2)cc1 :: YES
6) Cc1ccc(/C=C2/SC(=S)N(CCC(=O)NCCCN3CCOCC3)C2=O)cc1 :: NO
7) C=CCOc1ccc(/C=C2\SC(=S)N(CCC(=O)O)C2=O)cc1 :: YES
8) O=C(Nc1ccc(-c2csc(Nc3cccc(C(F)(F)F)c3)n2)cc1)c1cccc(C(F)(F)F)c1 :: NO
9) COc1cc(NC(=O)c2cncc(-c3ccc(C#N)cc3)c2)cc(C(=O)Nc2cccc(C(F)(F)F)c2)c1 :: YES

# input Given Cc1ccc(C(=O)NC(=S)Nc2ccc3[nH]c(=O)[nH]c3c2)cc1C , state whether its inhibition is at least -10%.
# output YES

###

Assay: MITF transcriptional activity suppression – cell-based, SK-MEL-5, single point, luciferase, primary screen (AID 488899)
Settings: SK-MEL-5 TRPM1 promoter luciferase, 24 h; at 12.5 µM; stronger effect = higher value
The campaign covered roughly 330,000 compounds. About 2,800 (0.85%) were called active. What follows is part of a selection rich in actives, with near analogues and random picks from the rest.
inhibition for assorted compounds
Lab book: enter the figure in %, no units written.

1. COc1ccccc1NC(=O)CCC(=O)N1CC(C)Oc2ccc(C)cc21 (configuration not stated) :: -0.622
2. N/C(=N\OC(=O)Nc1ccccc1)c1ccno1 :: -14
3. COc1ccc(C(=O)NCC(c2ccco2)N2CCc3ccccc32)cc1OC (configuration not stated) :: 5.95
4. CC(C)=CCc1ccc(O)c(=O)cc1C(C)C :: 71.6
5. CC1CCCCC1NC(=O)COC(=O)Cc1ccc(Cl)cc1 (configuration not stated) :: 6.02

# input Which measured inhibition value corresponds to CCN1C(=O)N[C@@H](c2ccccc2)C(C(=O)OC)=C1C ?
# output -9.9

# input # repeat for Cc1ccc(CNC(=O)c2ccc(CS(=O)Cc3cccc(Cl)c3)o2)cc1 (configuration not stated)
# output 2.54

###

Experiment: MITF transcriptional activity suppression – cell-based, SK-MEL-5, single point, luciferase, primary screen (AID 488899)
Details: SK-MEL-5 TRPM1 promoter luciferase, 24 h; at 12.5 µM
About 2,800 (0.85%) of roughly 330,000 compounds were called active.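 How the source made its calls: active means mean inhibition across replicates of 60% or more, whatever share of single replicates reaches that level; inconclusive means some that reach 60%, reason not given; inactive means mean inhibition across replicates below 60%.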 For the sample, actives were picked, then their nearest neighbours and some compounds at random.
Bench note: report the call from active, inactive

# example entries with known answers
1. CCOCCCn1c(NN)nc2ccccc2c1=O :: inactive
2. CC(C(=O)NC1CCCC1)N1CCN(S(=O)(=O)c2ccccc2Cl)CC1 (stereo not drawn) :: inactive
3. CN(C)c1ccc(CSc2ccccc2)cc1 :: inactive
4. Cn1c(=O)c2c(nc(SCCNS(=O)(=O)c3ccccc3)n2C)n(C)c1=O :: inactive
5. Cc1ccc(C(C[N+](=O)[O-])c2c(C)cc3ccccn23)cc1 (stereo not drawn) :: inactive

# input Hi, sorry to bother you, what did the test record for CC(C)CC[n+]1ccn(C2=C([O-])c3ccccc3C(=O)/C2=N\S(=O)(=O)c2ccccc2)c1 ?
# output active

# input Another molecule to look at: Nc1nonc1-n1nnc(C(=O)N/N=C/c2cc(Br)ccc2O)c1CSC1=NCCS1
# output inactive

# input Note, next up: Cc1ccc(/C=N/NC(=O)C2=NNC(c3ccccc3)(c3ccccc3)C2)c(O)c1
# output active

# input Proceed to COc1ccc(S(=O)(=O)N2CCC(C(=O)N3CCc4ccccc4C3)CC2)cc1OC
# output inactive

###

Assay: MITF transcriptional activity suppression – cell-based, SK-MEL-5, single point, luciferase, primary screen (AID 488899)
Settings: SK-MEL-5 TRPM1 promoter luciferase, 24 h; at 12.5 µM; stronger effect = higher value
The whole screen tested about 330,000 compounds, of which about 2,800 (0.85%) were called active. The sample holds actives, similar compounds and a random draw of the others, so the mix is not that of the screen.
endpoint: inhibition (%)
Reply with just the number (in %).

Consider the reported inhibition for these molecules:
1. O=C(C1CC(=O)N(C2CCCC2)C1)N1CCN(c2cccc(C(F)(F)F)c2)CC1 (stereo unspecified) :: 3.91
2. C=CCn1c(CNS(=O)(=O)c2ccc(Br)cc2)nnc1SC :: -0.805
3. Cc1ccc(S(=O)(=O)C2C(=O)NC3(C)CC2c2ccccc2O3)cc1 (stereo unspecified) :: 4.13
4. Cc1cc(C)cc(OCC(=O)NNC(=O)c2cc3ccccc3oc2=O)c1 :: -14.8
5. Cc1ccsc1C(=O)OCC(=O)c1cc(C)n(CC2CCCO2)c1C (stereo unspecified) :: 68
6. CCCC/C(C)=N/NC(=O)NC1CCCCC1 :: 4.57
7. CCCC(O)(c1ccccc1)C(c1ccccc1)c1ccccn1 (stereo unspecified) :: 4.1
8. COc1ccc(NC(=O)N2CCCC2C(=O)NCc2ccccc2Cl)cc1 (stereo unspecified) :: 11.5
9. O=C(CCc1ccccc1Cl)Nc1ccc(S(=O)(=O)Nc2nccs2)cc1 :: 12.4
10. COc1cc(O)c2c(=O)c3c(O)c(O)ccc3oc2c1OC :: -1.36

Please find the next molecule below.
# input Entry O=C(CN1C(=O)c2ccccc2S1(=O)=O)NC1CCCCC1 : reported inhibition = ?
# output 4.83

###

inhibition by entry:
Experiment: MITF transcriptional activity suppression – cell-based, SK-MEL-5, single point, luciferase, primary screen (AID 488899)
Settings: SK-MEL-5 TRPM1 promoter luciferase, 24 h; at 12.5 µM; stronger effect = higher value
The campaign covered roughly 330,000 compounds. About 2,800 (0.85%) were called active. What follows is part of a selection rich in actives, with near analogues and random picks from the rest.

// below: answered compounds
1) CC(=O)/C(=N\Nc1ccc(Cl)cc1Cl)Sc1cccc2cccnc12 :: 65.6% (active)
2) O=c1[nH]c2cccnc2n(CCNc2ncc(C(F)(F)F)cc2Cl)c1=O :: -3.01% (inactive)
3) COc1ccc(CNC(=O)C[C@H]2C[C@H](C(=O)N3CCOCC3)[C@@]3(CCC4CCCC4)c4[nH]c5ccc(Cl)cc5c4CCN3C2=O)cc1OC :: 72.7% (active)

# input Query (compound): S=C(NCc1cccnc1)Nc1ccc(Cl)cc1Cl ; field requested: inhibition
# output -6.79% (inactive)

# input Again, but for O=C(C[C@H]1C[C@H](C(=O)N2CCOCC2)[C@@]2(CCC3CCCC3)c3[nH]c4ccc(Cl)cc4c3CCN2C1=O)NCc1ccco1
# output 21.2% (inactive)

###

Test: MITF transcriptional activity suppression – cell-based, SK-MEL-5, single point, luciferase, primary screen (AID 488899)
Settings: SK-MEL-5 TRPM1 promoter luciferase, 24 h; at 12.5 µM
Hit rate of the full screen: of about 330,000 compounds, about 2,800 (0.85%) were called active.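 The calls were made as follows: active = mean inhibition across replicates of 60% or more, whatever share of single replicates reaches that level; inconclusive = some that reach 60%, reason not given; inactive = mean inhibition across replicates below 60%.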 The list comes from a sample in which actives are over-represented; it also holds close analogues and randomly drawn compounds.
Please answer using one outcome listed in true (1) (active), false (0) (inactive)

# input // param item: CC(Oc1ccc(-c2ccccc2)c(F)c1)c1ccn(S(=O)(=O)c2cccc3ccccc23)n1 (stereo unspecified) ; yields the recorded call
# output false (0)

# input What about COc1ccc2sc(-c3ccc(N(C)C)cc3)c(-c3ccc4cc[nH]c4c3)c2c1 ?
# output false (0)

###

Assay: MITF transcriptional activity suppression – cell-based, SK-MEL-5, single point, luciferase, primary screen (AID 488899)
Details: SK-MEL-5 TRPM1 promoter luciferase, 24 h; at 12.5 µM
The whole screen tested about 330,000 compounds, of which about 2,800 (0.85%) were called active.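 How the source made its calls: active means mean inhibition across replicates of 60% or more, whatever share of single replicates reaches that level; inconclusive means some that reach 60%, reason not given; inactive means mean inhibition across replicates below 60%.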 This excerpt belongs to a sample that is enriched for actives.
Please reply with one of these outcomes: active, inactive

1. COc1ccc(Nc2ncnc3ccc(Br)cc23)c(OC)c1 :: active
2. O=C(CN1CCOc2ccccc21)N1CCC(Cc2ccccc2)CC1 :: inactive
3. Brc1ccc2ncnc(NCc3cccnc3)c2c1 :: inactive
4. CCOc1ccc(N(C)S(=O)(=O)c2cnc[nH]2)cc1 :: inactive
5. CCC1=Nc2cc(C(=O)NCCN3CCCC3)ccc2Sc2ccc(C)cc21 :: inactive

# input What is the recorded call for this molecule in the test? Cc1cc(C)c2nc3nc(C)cc(C)c3c(N)c2c1
# output active

# input And what about the molecule CC(C)(C)OC(=O)NC(Cc1ccccc1)C(=O)NC(CSC1CCCCO1)C(=O)NN (stereo unspecified) ?
# output inactive

# input Same for CN1c2ccc(C=O)c3c(C=O)ccc(c23)N(C)C1(C)C
# output active

# input What would you report for Cc1cccc(-c2nc3ccc(C(=O)NCCN4CCN(C)CC4)cc3nc2-c2cccc(C)c2)c1 ?
# output active

# input Proceed to CCN(CC)CCNS(=O)(=O)c1ccc(/C=C/C(=O)O)cc1
# output inactive

# input Now the molecule O=C1c2ccccc2C(=O)N1CC1c2ccccc2CCN1S(=O)(=O)c1ccccc1 (stereo unspecified)
# output inactive
